Exercise: state measured pKd for each of the binders provided.
- Assayed System: T1, hANGPTL3(17-460)-His (human, UniProt Q9Y5C1 17-460)
- T1 construct: Bought protein (R&D Systems); also called full-length mature human ANGPTL3 with a C-terminal decahistidine tag; Human ANGPTL3 (17-460)-His
- T1 sequence: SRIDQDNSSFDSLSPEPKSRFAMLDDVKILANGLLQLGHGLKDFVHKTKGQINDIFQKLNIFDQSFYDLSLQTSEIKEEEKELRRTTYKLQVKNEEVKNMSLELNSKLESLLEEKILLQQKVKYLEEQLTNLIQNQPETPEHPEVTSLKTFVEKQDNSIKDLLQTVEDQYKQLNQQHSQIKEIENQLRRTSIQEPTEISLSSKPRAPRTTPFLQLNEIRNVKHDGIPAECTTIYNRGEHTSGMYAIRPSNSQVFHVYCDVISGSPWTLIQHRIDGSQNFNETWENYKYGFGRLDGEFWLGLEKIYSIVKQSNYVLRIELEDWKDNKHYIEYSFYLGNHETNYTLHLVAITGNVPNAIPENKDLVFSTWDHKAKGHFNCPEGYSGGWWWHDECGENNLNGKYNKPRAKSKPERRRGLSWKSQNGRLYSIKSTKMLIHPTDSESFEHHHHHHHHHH
- Experiment: SPR Biacore, antigen captured, 37C, pH 7.4, HBS-EP
Give bare numbers, as −log10 of the molar value.

>>> value_measured("H4H1292P (antibody, IgG4, V domains shown) VH: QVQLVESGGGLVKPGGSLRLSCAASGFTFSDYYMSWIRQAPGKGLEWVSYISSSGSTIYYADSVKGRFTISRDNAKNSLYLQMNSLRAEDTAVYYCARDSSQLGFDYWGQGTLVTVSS VL: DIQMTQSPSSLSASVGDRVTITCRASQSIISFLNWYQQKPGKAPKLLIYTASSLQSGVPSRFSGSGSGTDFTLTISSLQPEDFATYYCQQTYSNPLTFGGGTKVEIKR")
8.99
>>> value_measured("H4H1263S (antibody, IgG4, V domains shown) VH: QVQLVQSGGGVVQPGRSLRLSCAASGFTFSTYGMHWVRQAPGKGLEWMAVISFDRGNKYYADSVKGRFTISRDNSKNTLYLQMNSLRAEDTAVYYCAKGGGSGTFYYYYGMDVWGQGTTVTVSS VL: DIQMTQSPSSVSASVGNRVTITCRASQGISSWLAWYHQKPGKVPKVLIYAASSLQSGVPSRFSGSGSGTDFTLTISSLQPEDFATYYCQQANSFPFTFGPGTKVEIKR")
9.42

Next item in the queue.
Could you share which pKd value was measured for H4H1279P (antibody, IgG4, V domains shown) VH: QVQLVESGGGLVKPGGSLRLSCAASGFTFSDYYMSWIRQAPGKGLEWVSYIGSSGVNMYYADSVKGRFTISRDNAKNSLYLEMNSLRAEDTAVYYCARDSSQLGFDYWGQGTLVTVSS VL: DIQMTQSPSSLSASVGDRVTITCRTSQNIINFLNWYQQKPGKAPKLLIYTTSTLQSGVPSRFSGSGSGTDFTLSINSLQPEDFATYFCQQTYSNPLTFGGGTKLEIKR ?
9.42
